# Test system: H929 human cancer cell lines
# test_method_notes: Cellular viability / proliferation (Cell TiterGlo, 72 h)
# Type: cell-based
# cond: Homo sapiens, NCI-H929, 72 h, read-out: GI50 on cellular proliferation of H929 human cancer cell lines, H929 cells, 72 h, Cell TiterGlo, 10% FBS
Recorded GI50 for the following molecules
measured_metric: GI50 (nM)

>>> val("COCCCn1c(C(=O)O)cc2cc(C)cc(N3C[C@@H](C)n4c(c(CCCOc5cc(C)c(Cl)c(C)c5)c5ccc(Cl)c(-c6c(C)nn(C)c6C)c54)C3=O)c21 [Example 686]")
520
>>> val("Cc1cc(OCCCc2c3n(c4c(-c5c(C)nn(C)c5C)c(Cl)ccc24)[C@H](C)CN(c2cn(C)c4ccc(-c5cnn(C)c5)cc24)C3=O)cc(C)c1Cl [Example 391]")
370
>>> val("Cc1cc(OCCCc2c3n(c4c(-c5c(C)nn(C)c5C)c(Cl)ccc24)[C@H](C)CN(c2cc(OC4CCN(C)C4)cc4cc(C(=O)O)n(C)c24)C3=O)cc(C)c1Cl (some centres unmarked) [Example 521]")
610
>>> val("Cc1cc(OCCCc2c3n(c4c(-c5c(C)nn(C)c5C)c(Cl)ccc24)[C@H](C)CN(c2cn(C)c4cc(S(C)(=O)=O)ccc24)C3=O)cc(C)c1Cl [Example 222]")
3000
>>> val("Cc1cc(OCCCc2c3n(c4c(-c5c(C)nn(C)c5C)c(Cl)ccc24)[C@H](C)CN(c2cn(CC4CCN(C)C4)c4ccc(C(=O)O)cc24)C3=O)cc(C)c1Cl (some centres unmarked) [Example 534]")
520
>>> val("Cc1cc(OCCCc2c3n(c4c(-c5c(C)nn(C)c5C)c(Cl)ccc24)[C@H](C)CN(c2nn(C)c4ccc(C(=O)O)cc24)C3=O)cc(C)c1Cl [Example 163]")
260
>>> val("Cc1cc(OCCCc2c3n(c4c(-c5c(C)nn(C)c5C)c(Cl)ccc24)[C@H](C)CN(c2cn(CCC4CCOCC4)c4ccc(C(=O)O)cc24)C3=O)cc(C)c1Cl [Example 240]")
1900
>>> val("COc1cc(N2C[C@@H](C)n3c(c(CCCOc4cc(C)c(Cl)c(C)c4)c4ccc(Cl)c(-c5c(C)ncnc5C)c43)C2=O)c2c(c1)cc(C(=O)O)n2C [Example 535]")
280
>>> val("Cc1cc(OCCCc2c3n(c4c(-c5c(C)nn(C)c5C)c(Cl)ccc24)CCCN(c2cc(C(=O)O)c4ccn(C)c4c2)C3=O)cc(C)c1Cl (single isomer, unassigned) [Example 431]")
2900
>>> val("Cc1cc(OCCCc2c3n(c4c(-c5c(C)nn(C)c5C)c(Cl)ccc24)[C@H](C)CN(c2cc(C(=O)N4CCN(C)C(=O)C4)cc4cc(C(=O)O)n(C)c24)C3=O)cc(C)c1Cl [Example 630]")
9000
>>> val("Cc1cc(OCCCc2c3n(c4c(-c5c(C)nn(C)c5C)c(Cl)ccc24)[C@H](C)CN(c2cn(C)c4ccc(-n5ccnn5)cc24)C3=O)cc(C)c1Cl [Example 668]")
1500

====

# Test system: H929 human cancer cell lines
# test_method_notes: Cellular viability / proliferation (Cell TiterGlo, 72 h)
# Assay type: cell-based
# cond: Homo sapiens, NCI-H929, 72 h, read-out: GI50 on cellular proliferation of H929 human cancer cell lines, H929 cells, 72 h, Cell TiterGlo, 10% FBS
measured_metric: GI50 (nM)

>>> val("COc1ccc(N2C[C@@H](C)n3c(c(CCCOc4cc(C)c(Cl)c(C)c4)c4ccc(Cl)c(-c5c(C)nn(C)c5C)c43)C2=O)c2c1c(C(=O)O)cn2C")
820
>>> val("Cc1cc(OCCCc2c3n(c4c(-c5c(C)nn(C)c5C)c(Cl)ccc24)[C@H](C)CN(c2cc(N(C)C)cc4cc(C(=O)O)n(C)c24)C3=O)cc(C)c1Cl")
250
>>> val("Cc1cc(N2C[C@@H](C)n3c(c(CCCOc4cc(C)c(Cl)c(C)c4)c4ccc(Cl)c(-c5c(C)nn(C)c5C)c43)C2=O)c2c(c1)cc(C(=O)O)n2CCO")
610
>>> val("Cc1cc(OCCCc2c3n(c4c(-c5c(C)nn(C)c5C)c(Cl)ccc24)[C@H](C)CN(c2nccc4cc(C(=O)O)ccc24)C3=O)cc(C)c1Cl")
560
>>> val("Cc1cc(OCCCc2c3n(c4c(-c5c(C)nn(C)c5C)c(Cl)ccc24)[C@H](C)CN(c2cccc4c(C(=O)O)cn(Cc5cccnc5)c24)C3=O)cc(C)c1Cl")
1300
>>> val("Cc1cc(OCCCc2c3n(c4c(-c5c(C)nn(C)c5C)c(Cl)ccc24)[C@H](C)CN(c2cn(C)c4ccc(S(=O)(=O)N5CCNCC5)cc24)C3=O)cc(C)c1Cl")
1500
>>> val("Cc1cc(OCCCc2c3n(c4c(-c5c(C)nn(C)c5C)c(Cl)ccc24)[C@H](C)CN(c2cn(CCN(C)C)c4ccc(C(=O)O)cc24)C3=O)cc(C)c1Cl")
240
>>> val("COCCn1cc(N2C[C@@H](C)n3c(c(CCCOc4cc(C)c(Cl)c(C)c4)c4ccc(Cl)c(-c5c(C)nn(C)c5C)c43)C2=O)c2cc(-c3ncn(CCN4CCN(C)CC4)n3)ccc21")
430
>>> val("Cc1cc(OCCCc2c3n(c4c(-c5c(C)nn(C)c5C)c(Cl)ccc24)[C@H](C)CN(c2cn(Cc4ccc(F)c(F)c4)c4ccc(C(=O)O)cc24)C3=O)cc(C)c1Cl")
3700
>>> val("COc1ccc(N2C[C@@H](C)n3c(c(CCCOc4cc(C)c(Cl)c(C)c4)c4ccc(Cl)c(-c5c(C)nn(C)c5C)c43)C2=O)c2c1c(C(=O)O)cn2Cc1cc(C)ccn1")
470
>>> val("Cc1cc(OCCCc2c3n(c4c(-c5c(C)n[nH]c5C)c(Cl)ccc24)[C@H](C)CN(c2cc(C(=O)O)c4ccn(C)c4c2)C3=O)cc(C)c1Cl")
2400
>>> val("Cc1cc(N2C[C@@H](C)n3c(c(CCCOc4cc(C)c(Cl)c(C)c4)c4ccc(Cl)c(-c5c(C)ncnc5C)c43)C2=O)c2c(c1)cc(C(=O)O)n2Cc1cccc(C)n1")
350
>>> val("Cc1cc(OCCCc2c3n(c4c(-c5c(C)ncnc5C)c(Cl)ccc24)[C@H](C)CN(c2cc(C(=O)O)c4ccn(C)c4c2)C3=O)cc(C)c1Cl")
850
>>> val("Cc1cc(OCCCc2c3n(c4c(-c5c(C)nn(C)c5C)c(Cl)ccc24)[C@H](C)CN(c2ccc(C(=O)O)c4ccccc24)C3=O)cc(C)c1Cl")
920
>>> val("Cc1cc(OCCCc2c3n(c4c(-c5c(C)nn(C)c5C)c(Cl)ccc24)[C@H](C)CN(c2cc(C(=O)O)c4ncccc4c2)C3=O)cc(C)c1Cl")
4800
>>> val("COc1ccc(N2C[C@@H](C)n3c(c(CCCOc4cc(C)c(Cl)c(C)c4)c4ccc(Cl)c(-c5c(C)nc(CN(C)C)nc5C)c43)C2=O)c2c1cc(C(=O)O)n2C")
280
>>> val("Cc1cc(OCCCc2c3n(c4c(-c5c(C)nn(C)c5C)c(Cl)ccc24)[C@H](C)CN(c2cccc4cc(C(=O)O)oc24)C3=O)cc(C)c1Cl")
2300
>>> val("CC(=O)N1CCN(c2cccc(Cn3c(C(=O)O)cc4cc(C)cc(N5C[C@@H](C)n6c(c(CCCOc7cc(C)c(Cl)c(C)c7)c7ccc(Cl)c(-c8c(C)nn(C)c8C)c76)C5=O)c43)n2)CC1")
870
>>> val("Cc1cc(OCCCc2c3n(c4c(-c5c(C)nn(C)c5C)c(Cl)ccc24)[C@H](C)CN(c2nn(CCN4CCOCC4)c4cc(C(=O)O)ccc24)C3=O)cc(C)c1Cl")
710
>>> val("COCCn1cc(N2C[C@@H](C)n3c(c(CCCOc4cc(C)c(Cl)c(C)c4)c4ccc(Cl)c(-c5c(C)nn(C)c5C)c43)C2=O)c2cc(-c3ncn(CCN4CCOCC4)n3)ccc21")
370

====

# test_system: UniProt Q07820
# Sequence (Q07820 172-327): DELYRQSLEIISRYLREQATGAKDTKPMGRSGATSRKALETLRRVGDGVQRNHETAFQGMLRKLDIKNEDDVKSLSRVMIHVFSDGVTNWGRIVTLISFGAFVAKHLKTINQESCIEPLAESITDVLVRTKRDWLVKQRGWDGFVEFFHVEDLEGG
# test_method_notes: Fluorescence polarization anisotropy (FPA) competition assay, FITC-Bak or FITC-Bim BH3 peptide
# Assay type: binding
# cond: read-out: Ki for Inhibition of Mcl-1 by FPA assay
Recorded Ki for the following compounds
measured_metric: Ki

>>> val("CNS(=O)(=O)c1ccc2c(c1)c(N1C[C@@H](C)n3c(c(CCCOc4cc(C)c(Cl)c(C)c4)c4ccc(Cl)c(-c5c(C)nn(C)c5C)c43)C1=O)cn2C")
"4.7 nM"
>>> val("Cc1cc(OCCCc2c3n(c4c(-c5c(C)nn(C)c5C)c(Cl)ccc24)[C@H](C)CN(c2cn(C)c4ccc(C(=O)NNc5ccccc5)cc24)C3=O)cc(C)c1Cl")
"1.2 nM"
>>> val("Cc1cc(N2C[C@@H](C)n3c(c(CCCOc4cc(C)c(Cl)c(C)c4)c4ccc(Cl)c(-c5c(C)n[nH]c5C)c43)C2=O)c2c(c1)cc(C(=O)O)n2C")
"1.4 nM"
>>> val("COc1cc(N2C[C@@H](C)n3c(c(CCCOc4cc(C)c(Cl)c(C)c4)c4ccc(Cl)c(-c5c(C)nn(C)c5C)c43)C2=O)c2cc(C(=O)O)n(C)c2c1")
"< 1 nM"
>>> val("Cc1cc(OCCCc2c3n(c4c(-c5c(C)nn(C)c5C)c(Cl)ccc24)[C@H](C)CN(c2cn(C)c4ccc(-c5nnnn5C)cc24)C3=O)cc(C)c1Cl")
"4.2 nM"
>>> val("Cc1cc(OCCCc2c3n(c4c(-c5c(C)nn(C)c5C)c(Cl)ccc24)[C@H](C)CN(c2cc(Cl)cc4c(C(=O)O)cn(C)c24)C3=O)cc(C)c1Cl")
"2.6 nM"
>>> val("Cc1cc(OCCCc2c3n(c4c(-c5c(C)nn(C)c5C)c(Cl)ccc24)[C@H](C)CN(c2cn(C)c4ccc(-c5noc(=O)[nH]5)cc24)C3=O)cc(C)c1Cl")
"2.3 nM"
>>> val("Cc1cc(OCCCc2c3n(c4c(-c5c(C)nn(C)c5C)c(Cl)ccc24)[C@H](C)CN(c2ccc(OCc4ccccc4)c4c2cc(C(=O)O)n4C)C3=O)cc(C)c1Cl [Example 327]")
"1.6 nM"
>>> val("Cc1cc(OCCCc2c3n(c4c(-c5c(C)nn(C)c5C)c(Cl)ccc24)[C@H](C)CN(c2cccc4cc(C(N)=O)n(C)c24)C3=O)cc(C)c1Cl [Example 270]")
"1.1 nM"
>>> val("Cc1cc(OCCCc2c3n(c4c(-c5c(C)nn(C)c5C)c(Cl)ccc24)[C@H](C)CN(c2cn(C)c4ccc(C(=O)Nc5ccncc5)cc24)C3=O)cc(C)c1Cl")
"1.2 nM"
>>> val("Cc1cc(OCCCc2c3n(c4c(-c5c(C)nn(C)c5C)c(Cl)ccc24)[C@H](C)CN(c2cccc4cc(C(=O)O)[nH]c24)C3=O)cc(C)c1Cl [Example 242]")
"< 1 nM"
>>> val("Cc1cc(OCCCc2c(C(=O)N3CCN(c4cncc(C(=O)O)c4)CC3)n(Cc3cccnc3)c3c(-c4c(C)nn(C)c4C)c(Cl)ccc23)cc(C)c1Cl")
"> 200 nM"
>>> val("Cc1cc(OCCCc2c3n(c4c(-c5c(C)ncnc5C)c(Cl)ccc24)[C@H](C)CN(c2cn(C)c4ccc(C(N)=O)cc24)C3=O)cc(C)c1Cl")
"7.4 nM"
>>> val("Cc1cc(OCCCc2c(C(=O)NCc3cccc(C(=O)O)c3)[nH]c3c(-c4c(C)ncnc4C)c(Cl)ccc23)cc(C)c1Cl")
"6.3 nM"
>>> val("Cc1cc(N2C[C@@H](C)n3c(c(CCCOc4cc(C)c(Cl)c(C)c4)c4ccc(Cl)c(-c5c(C)nn(C)c5C)c43)C2=O)c2c(c1)c(C(=O)O)cn2C [Example 159]")
"< 1 nM"
>>> val("COc1ccc(N2C[C@@H](C)n3c(c(CCCOc4cc(C)c(Cl)c(C)c4)c4ccc(Cl)c(-c5c(C)nn(C)c5C)c43)C2=O)c2c1cc(C(=O)O)n2Cc1ccccn1")
"< 1 nM"
>>> val("CCn1ncc2c(C(=O)O)cc(N3CCCn4c(c(CCCOc5cc(C)c(Cl)c(C)c5)c5ccc(Cl)c(-c6c(C)nn(C)c6C)c54)C3=O)cc21")
"1.1 nM"
>>> val("Cc1cc(OCCCc2c3n(c4c(-c5c(C)nn(C)c5C)c(Cl)ccc24)[C@H](C)CN(c2cn(C)c4ccc(C#N)cc24)C3=O)cc(C)c1Cl")
"< 1 nM"
>>> val("Cc1cc(OCCCc2c3n(c4c(-c5c(C)nn(C)c5C)c(Cl)ccc24)[C@H](C)CN(c2cn(C)c4ccc(-c5nnco5)cc24)C3=O)cc(C)c1Cl")
"5.1 nM"
>>> val("CC[C@@H]1Cn2c(c(CCCOc3cc(C)c(Cl)c(C)c3)c3ccc(Cl)c(-c4c(C)nn(C)c4C)c32)C(=O)N1c1ccc(C(=O)O)c2ncccc12")
"1.9 nM"
>>> val("Cc1cc(OCCCc2c3n(c4c(-c5c(C)nn(CCN6CCCC6)c5C)c(Cl)ccc24)[C@H](C)CN(c2cn(C)c4ccc(C(N)=O)cc24)C3=O)cc(C)c1Cl")
"23 nM"
>>> val("Cc1cc(OCCCc2c3n(c4c(-c5c(C)nn(C)c5C)c(Cl)ccc24)CCCN(c2nc(C(=O)O)n[nH]2)C3=O)cc(C)c1Cl")
"3 nM"
